# target_of_assay: T1, Human VSIG4-L-His (human, UniProt Q9Y279 20-283)
# T1 construct: long isoform ECD with His tag; also called hVSIG4-L
# T1 sequence: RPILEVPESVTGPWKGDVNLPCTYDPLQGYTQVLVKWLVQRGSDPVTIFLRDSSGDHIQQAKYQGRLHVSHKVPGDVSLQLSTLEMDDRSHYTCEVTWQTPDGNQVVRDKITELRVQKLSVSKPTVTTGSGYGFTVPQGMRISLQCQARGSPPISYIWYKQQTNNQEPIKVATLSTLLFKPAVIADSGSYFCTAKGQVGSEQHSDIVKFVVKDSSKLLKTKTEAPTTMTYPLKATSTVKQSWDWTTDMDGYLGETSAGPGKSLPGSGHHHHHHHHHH
# experiment_description: BLI, IgG on AHC sensor, antigen 100 nM
attribute_measured: KD relative to parental chimera (fold)
Give bare numbers, in fold.

• h14D12.E humanized IgG4 (S228P) kappa (antibody, V domains shown) VH: QIQLVQSGSELKKPGASVKVSCKASGYTFTNYGMNWVRQAPGQGLEWMGLINTYTGEPTYADGFTGRFVFSLDTSVSTAYLQISSLKAEDTAVYYCARERIYGYLHYFDYWGQGTTVTVSS VL: DVQMTQSPSSLSASVGDRVTITCRASQSVDYDGDSYMNWYQQKPGKAPKLLIYAASNLESGVPSRFSGSGSGTDFTLTISSLQPEDFATYYCQQSNEDPRTFGGGTKLEIKR = 0.9

# evaluate next
Query: What does the data say about its KD relative to parental chimera? Entry: 14C05 mouse/human chimeric IgG4 (S228P) kappa (antibody, V domains shown) VH: EVMLVESGPELKKPGETVKISCKASGYTFTNYGMNWVKQAPGKGLKWMGSINTYTGEATYADDFKGRFAFSLETSANTAYLQIDNLKNEDTATYFCARGDYYGRGTWFAYWGQGTLVTVSA VL: ETTVTQSHKFMSTSVGDRVSITCKASQDVSTAVAWYQQKPGQSPKLLIYSASYRYPGVPDRFTGSGSGTDFTFTISSVQAEDLAVYYCQQDYSSPWTFGGGTKLEIKR
Response: 1
